Tested target: Pro-cathepsin H (Homo sapiens)
Sequence (whole entry): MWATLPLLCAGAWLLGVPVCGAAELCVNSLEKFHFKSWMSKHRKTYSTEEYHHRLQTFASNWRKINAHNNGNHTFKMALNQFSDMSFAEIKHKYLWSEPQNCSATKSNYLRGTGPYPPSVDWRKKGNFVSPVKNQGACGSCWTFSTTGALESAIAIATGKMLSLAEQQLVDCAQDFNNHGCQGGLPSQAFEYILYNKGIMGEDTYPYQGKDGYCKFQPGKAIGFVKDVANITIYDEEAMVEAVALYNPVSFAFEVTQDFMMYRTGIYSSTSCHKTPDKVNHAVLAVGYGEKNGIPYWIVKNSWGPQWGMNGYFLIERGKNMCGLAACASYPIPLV
Method summary: Inhibition of native cathepsin H isolated from human liver assessed as formation of fluorescent degradation product AMC using Arg-AMC as substrate at 50 uM by fluorescence microplate assay
As shown below, each of these compounds has a reported inhibition value.
Endpoint label: inhibition (%)

structure_string=O=c1nc(SCc2ccccc2)nc(SCC2CCCC2)[nH]1 tested_target="Pro-cathepsin H (Homo sapiens)" unit=% reading=10.6
structure_string=Cc1ccc(-c2nc(S)[nH]c(=O)n2)cc1 tested_target="Pro-cathepsin H (Homo sapiens)" unit=% reading=6.58
structure_string=COc1ccccc1CSc1nc(SCc2ccccc2)nc(=O)[nH]1 tested_target="Pro-cathepsin H (Homo sapiens)" unit=% reading=1.06

---

Tested target: Cathepsin B (Homo sapiens)
Method summary: Inhibition of human recombinant cathepsin B assessed as factor by which the product formation changes when the inhibitor binds to the enzyme-substrate complex using Z-Arg-Arg-AMC as substrate by fluorescence microplate assay
Endpoint label: fold change (FC)

structure_string=O=c1nc(SCc2ccccc2)nc(SCc2ccccc2[N+](=O)[O-])[nH]1 endpoint_label="fold change (FC)" reading=0.24
structure_string=O=c1nc(SCc2ccccc2)nc(SCc2cccc(F)c2)[nH]1 endpoint_label="fold change (FC)" reading=0.22
structure_string=O=c1nc(SCc2ccccc2)nc(SCc2ccc([N+](=O)[O-])cc2)[nH]1 endpoint_label="fold change (FC)" reading=0.17

---

As shown below, each of these compounds has a reported Ki value.
Tested target: Cathepsin B (Homo sapiens)
Method summary: Partial mixed-type inhibition of human recombinant cathepsin B assessed as formation of fluorescent degradation product AMC using Z-Arg-Arg-AMC as substrate by Michaelis-Menten method
Endpoint label: Ki (µM)

structure_string=N#Cc1ccccc1CSc1nc(SCc2ccccc2)nc(=O)[nH]1 endpoint_label=Ki reading=10.5
structure_string=O=c1nc(SCc2ccccc2)nc(SCC2CCCCC2)[nH]1 endpoint_label=Ki reading=3.3
structure_string=O=c1nc(SCc2ccccc2)nc(SCc2cccc([N+](=O)[O-])c2)[nH]1 endpoint_label=Ki reading=3.3
structure_string=N#Cc1cccc(CSc2nc(SCc3ccccc3)nc(=O)[nH]2)c1 endpoint_label=Ki reading=9.1
structure_string=O=c1nc(SCc2ccccc2)nc(SCc2cccc(F)c2)[nH]1 endpoint_label=Ki reading=7.4

Entry source: ChEMBL document CHEMBL1833856
